Target: hTLR7 (Homo sapiens)
Sequence (Q9NYK1 27-1049): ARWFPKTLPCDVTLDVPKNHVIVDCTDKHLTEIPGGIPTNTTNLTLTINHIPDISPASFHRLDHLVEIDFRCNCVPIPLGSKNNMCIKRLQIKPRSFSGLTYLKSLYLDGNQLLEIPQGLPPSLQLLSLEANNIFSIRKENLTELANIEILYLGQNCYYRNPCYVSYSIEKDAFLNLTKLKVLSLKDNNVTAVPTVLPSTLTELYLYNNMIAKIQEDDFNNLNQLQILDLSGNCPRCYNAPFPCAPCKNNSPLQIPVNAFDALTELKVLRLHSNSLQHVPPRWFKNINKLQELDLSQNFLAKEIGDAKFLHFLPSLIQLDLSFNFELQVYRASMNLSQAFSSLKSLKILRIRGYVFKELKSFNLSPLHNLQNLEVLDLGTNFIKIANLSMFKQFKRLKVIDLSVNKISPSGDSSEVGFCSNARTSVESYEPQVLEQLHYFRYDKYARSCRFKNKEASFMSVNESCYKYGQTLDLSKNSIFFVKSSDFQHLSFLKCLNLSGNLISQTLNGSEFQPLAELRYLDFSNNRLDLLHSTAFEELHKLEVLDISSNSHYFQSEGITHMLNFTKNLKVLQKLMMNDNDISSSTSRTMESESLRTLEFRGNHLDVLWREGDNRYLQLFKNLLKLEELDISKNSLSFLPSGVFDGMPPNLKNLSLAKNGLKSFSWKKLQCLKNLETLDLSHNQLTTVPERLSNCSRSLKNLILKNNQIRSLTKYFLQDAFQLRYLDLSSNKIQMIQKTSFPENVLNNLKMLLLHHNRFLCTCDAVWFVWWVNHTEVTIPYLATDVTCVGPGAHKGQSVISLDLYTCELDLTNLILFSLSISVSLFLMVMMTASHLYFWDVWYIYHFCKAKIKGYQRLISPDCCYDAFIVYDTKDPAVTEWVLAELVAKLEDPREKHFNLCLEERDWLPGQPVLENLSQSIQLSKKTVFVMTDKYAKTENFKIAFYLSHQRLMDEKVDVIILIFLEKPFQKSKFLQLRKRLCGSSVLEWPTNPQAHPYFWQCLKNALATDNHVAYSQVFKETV
Assay: Human TLR7 Reporter Assay
Conditions: HEK-Blue hTLR7 cells, 16 hours, normalized to CL097 (6 μM) and DMSO
endpoint: EC50 (nM)

compound: COc1cccc(OC)c1Cn1cc2nc(N)nc(NCCC(C)C)c2n1 [Compound 53]
EC50 / nM: 858
--
compound: CCCCNc1nc(N)nc2cn(Cc3ccc(C(C)N(C)C)cc3OC)nc12 (stereo not drawn) [Compound 219]
EC50 / nM: 122
--
compound: CCC[C@@H](C)Nc1nc(N)nc2cn(Cc3c(OC)cc(CNC)cc3OC)nc12 [Compound 189]
EC50 / nM: 90

I: CCCCNc1nc(N)nc2cn(Cc3cc(OC)c(CN(C)CCCN4C(=O)C=CC4=O)cc3OC)nc12 [Compound 143]
II: C=CCN(C)Cc1cc(OC)c(Cn2cc3nc(N)nc(N[C@H](C)CCC)c3n2)c(OC)c1 [Compound 187]
Prompt: Compare I and II and name the one whose reported EC50 is smaller. Answer format: the label of the selected item.
Completion: II
(II: 20 nM, I: 360 nM)

P: CCC[C@@H](CO)Nc1nc(N)nc2cn(Cc3ccccc3OC)nc12 [Compound 130]
Q: CCCCNc1nc(N)nc2cn(Cc3c(OC)cccc3OC)nc12 [Compound 5]
Prompt: Compare P and Q and name the one whose reported EC50 is smaller. Answer format: the label of the selected item.
Completion: Q
(Q: 72.7 nM, P: 370 nM)

P: CCCCNc1nc(N)nc2cn(Cc3ccc(C4CCC(=O)N4)cc3)nc12 (stereo not drawn) [Compound 201]
Q: CCCCNc1nc(N)nc2cn(Cc3cn(C)nc3OC)nc12 [Compound 197]
Prompt: Between the two listed entries P and Q , which has its EC50 at the higher number? Answer format: the label of the selected item.
Completion: P
(P: 539 nM, Q: 277 nM)

A: CCCCNc1nc(N)nc2cn(Cc3ccc(CC(C)N)cc3OC)nc12 (stereo not drawn) [Compound 176]
B: CCC[C@@H](CO)Nc1nc(N)nc2cn(Cc3c(OC)cc(CN(C)CCN)cc3OC)nc12 [Compound 213]
Prompt: Between the two listed entries A and B , which has its EC50 at the higher number? Answer format: the label of the selected item.
Completion: B
(B: 4750 nM, A: 329 nM)
